Biological target: T1, human GITR (hGITR), soluble analyte (human, UniProt Q9Y5U5 26-162)
T1 sequence: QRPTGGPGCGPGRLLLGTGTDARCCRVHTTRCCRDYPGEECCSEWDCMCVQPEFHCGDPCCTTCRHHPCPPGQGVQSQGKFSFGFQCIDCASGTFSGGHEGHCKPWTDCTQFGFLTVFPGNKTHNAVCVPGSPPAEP
Test: SPR (Biacore T200), 37 C; antibody captured on anti-human Fc chip, GITR as analyte; 1:1 Langmuir fit
# Lookup of reported kon keyed by entry
A number alone suffices; assume M⁻¹ s⁻¹.

Check out these entries, answers already filled in.
{"columns": ["Binder", "Unit spec", "kon"],
 "data": [
  ["h3G7 LF (antibody, V domains shown, Whole IgG captured on an anti-human Fc chip) VH: QVQLVQSGAEVKKPGASVKVSCKASGYTFTGATMNWVRQAPGQGLEWMGLINPYTGGIRYNQKFKGRVTMTRDTSTSTVYMELSSLRSEDTAVYYCARIGGYYDTMDYWGQGTLVTVSS VL: DIQMTQSPSSLSASVGDRVTITCRASESVEPRGINFLNWYQQKPGKAPKLLIYAASQASKGVPSRFSGSGSGTDFTLTISSLQPEDFATYYCQQALELPWTFGGGTKVEIK", "M⁻¹ s⁻¹", 690000],
  ["m10H2 (antibody, V domains shown, In ADCC it is called hIgG1; also called anti-human GITR antibody m10H2; A647 labeled m10H2) VH: QVQLQQSGAELMKPGASVKISCTATGYTISRYWIEWVKQRPGHGLEWIGEILPGSGVTNYNEKFKGKATFTADTSSNTAYMQLSSLTSEDSAVYSCARKGTYYAMDYWGQGTSVTVSS VL: DILLTQSPAILSVSPGERVSFSCRASQSIGTSIHWYQQRTNGSPRLLIKYASESVSGIPSRFSGSGSGTDFTLFINSVESEDIADYYCQQTYSWPATFGAGTKLELK", "M⁻¹ s⁻¹", 350000],
  ["h3G7 R5 (antibody, V domains shown, Only variable domains are tied to this name) VH: QVQLVQSGAEVKKPGASVKVSCKASGYTFTGATMNWVRQAPGQGLEWMGLINPYTGGIRYNQKFKGRVTMTRDTSTSTVYMELSSLRSEDTAVYYCARIGGYYDSMDYWGQGTLVTVSS VL: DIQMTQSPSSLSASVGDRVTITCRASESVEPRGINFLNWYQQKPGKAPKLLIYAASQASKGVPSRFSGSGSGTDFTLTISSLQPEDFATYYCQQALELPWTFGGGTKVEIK", "M⁻¹ s⁻¹", 900000]
]}

// next item, kon requested
Give kon for the following binder: h10H2 AM (antibody, V domains shown, Whole IgG captured on an anti-human Fc chip) VH: QVQLVQSGAEVKKPGSSVKVSCKASGGTFSRYWIEWVRQAPGQGLEWMGEILPGSGVTFENEKFKGRVTITADESTSTAYMELSSLRSEDTAVYYCARKGRYYAMDYWGQGTLVTVSS VL: EIVLTQSPGTLSLSPGERATLSCRASQSIGTSIHWYQQKPGQAPRLLIYYASESVSGIPDRFSGSGSGTDFTLTISRLEPEDFAVYYCQQTYSWPATFGQGTKVEIK 233000
